- run description: Prodrug conversion in Sprague-Dawley rat assessed as dexmedetomidine release at 2 times of ED50
- Format: ADME
- run parameters: in vivo
Let's look at some molecules and their measured Drug metabolism.
measured attribute: Drug metabolism (µg/kg)

molecule | readout number
Cc1cccc([C@H](C)c2cn(COC(=O)OC3CCC3)cn2)c1C.Cl | 29.48
Cc1cccc([C@H](C)c2cnc[nH]2)c1C | 28.38
CCCC(=O)OCn1cnc([C@@H](C)c2cccc(C)c2C)c1.Cl | 25.15
CCOC(=O)OCn1cnc([C@@H](C)c2cccc(C)c2C)c1.Cl | 34.47
Cc1cccc([C@H](C)c2cn(COC(=O)OC(C)C)cn2)c1C.Cl | 35.33
CCOC(=O)n1cnc([C@@H](C)c2cccc(C)c2C)c1.Cl | 27.61
CC(=O)OC(C)n1cnc([C@@H](C)c2cccc(C)c2C)c1.Cl (stereo not given in full) | 32.61
Cc1cccc([C@H](C)c2cn(C(=O)OC(C)C)cn2)c1C.Cl | 55.39
COC(=O)CCC(=O)OCn1cnc([C@@H](C)c2cccc(C)c2C)c1.Cl | 31.71
CCOC(=O)CCC(=O)OCn1cnc([C@@H](C)c2cccc(C)c2C)c1.Cl | 27.67
CC(=O)OCn1cnc([C@@H](C)c2cccc(C)c2C)c1.Cl | 41.68
CCOC(=O)COC(=O)OCn1cnc([C@@H](C)c2cccc(C)c2C)c1.Cl | 47.22
CCC(=O)OCn1cnc([C@@H](C)c2cccc(C)c2C)c1.Cl | 33.32
Cc1cccc([C@H](C)c2cn(COC(=O)C3CCC3)cn2)c1C.Cl | 39.02
Cc1cccc([C@H](C)c2cn(COC(=O)OC3CC3)cn2)c1C.Cl | 26.53
Cc1cccc([C@H](C)c2cncn2COP(=O)([O-])[O-])c1C.[Na+].[Na+] | 45.5
CCC(=O)OC(C)n1cnc([C@@H](C)c2cccc(C)c2C)c1.Cl (stereo not given in full) | 41.58
CCCOC(=O)n1cnc([C@@H](C)c2cccc(C)c2C)c1 | 31.7
Cc1cccc([C@H](C)c2cn(COC(=O)c3ccccc3)cn2)c1C.Cl | 64.29
COC(=O)COC(=O)OCn1cnc([C@@H](C)c2cccc(C)c2C)c1.Cl | 50.93

Every entry's value here was drawn from ChEMBL document CHEMBL5252653.
